# EC50 listing for each entry below
testTarget: RhlR (T58L) (Pseudomonas aeruginosa, UniProt P54292, T58L)
Construct: expressed in transfected cells; host or cells: E. coli carrying pBAD-A-rhlR mutant, pCS26-prhlA-luxCDABE and pACYC-pqsE or empty pACYC
methodSummary: E. coli prhlA-luxCDABE luciferase reporter assay
Assay type: cell-based, Escherichia coli
conditionLabel: pqsE co-expressed
Description: Previous analysis of the RhlR LBP focused on highly conserved residues that were known from other AHL-binding proteins to be important contacts for AHL molecules, particularly the lactone head group. We performed conservation analyses on 300 LuxR-type receptors to determine variable and moderately conserved residues in the LBP (Fig. 1B) and, in conjunction with our previously determined experimental structure of WT RhlR bound to the synthetic agonist mBTL, used for docking C4- and C6HSL. […]
property: EC50 (nM)

[[record]]
compound = "CCCC(=O)N[C@H]1CCOC1=O"
measurementunits = "nM"
observedresult = 99

[[record]]
compound = "CCCCCC(=O)N[C@H]1CCOC1=O"
measurementunits = "nM"
observedresult = 0.908


* * *

testTarget: RhlR (G46M) (Pseudomonas aeruginosa, UniProt P54292, G46M)
Sequence (P54292 1-241 G46M): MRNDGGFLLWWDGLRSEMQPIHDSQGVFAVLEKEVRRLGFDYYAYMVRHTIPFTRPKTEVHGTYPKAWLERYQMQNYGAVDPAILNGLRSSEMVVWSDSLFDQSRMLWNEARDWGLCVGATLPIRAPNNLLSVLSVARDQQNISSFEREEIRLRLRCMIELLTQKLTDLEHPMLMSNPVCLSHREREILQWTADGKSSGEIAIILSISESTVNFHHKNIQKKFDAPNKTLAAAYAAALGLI
methodSummary: E. coli prhlA-luxCDABE luciferase reporter assay
conditionLabel: pqsE co-expressed
Text: Previous analysis of the RhlR LBP focused on highly conserved residues that were known from other AHL-binding proteins to be important contacts for AHL molecules, particularly the lactone head group. We performed conservation analyses on 300 LuxR-type receptors to determine variable and moderately conserved residues in the LBP (Fig. 1B) and, in conjunction with our previously determined experimental structure of WT RhlR bound to the synthetic agonist mBTL, used for docking C4- and C6HSL. […]
property: EC50 (µM)

[[record]]
molecule = "CCCC(=O)N[C@H]1CCOC1=O [C4HSL, N-butyryl-L-homoserine lactone]"
property = "EC50"
observedresult = 32.7


* * *

testTarget: RhlR (T58I) (Pseudomonas aeruginosa, UniProt P54292, T58I)
Construct: expressed in transfected cells; host or cells: E. coli carrying pBAD-A-rhlR mutant, pCS26-prhlA-luxCDABE and pACYC-pqsE or empty pACYC
methodSummary: E. coli prhlA-luxCDABE luciferase reporter assay
Assay type: cell-based, Escherichia coli
conditionLabel: Vector (no pqsE)
property: EC50 (nM)

[[record]]
compound = "CCCCCC(=O)N[C@H]1CCOC1=O [C6HSL]"
testtarget = "RhlR (T58I) (Pseudomonas aeruginosa, UniProt P54292, T58I)"
observedresult = 561

[[record]]
compound = "CCCC(=O)N[C@H]1CCOC1=O [C4HSL, N-butyryl-L-homoserine lactone]"
testtarget = "RhlR (T58I) (Pseudomonas aeruginosa, UniProt P54292, T58I)"
observedresult = 1820


* * *

testTarget: RhlR (L69M) (Pseudomonas aeruginosa, UniProt P54292, L69M)
Construct: expressed in transfected cells; host or cells: E. coli carrying pBAD-A-rhlR mutant, pCS26-prhlA-luxCDABE and pACYC-pqsE or empty pACYC
methodSummary: E. coli prhlA-luxCDABE luciferase reporter assay
Format: cell-based
conditionLabel: pqsE co-expressed
pEC50: −log10 of the molar value.
property: pEC50

[[record]]
compound = "CCCC(=O)N[C@H]1CCOC1=O"
property = "pEC50"
observedresult = 5.76

